Recorded values, source patent US12037324B2.

molecular target: AGTR1 (Homo sapiens, UniProt P30556); construct: host or cells: Pathunter CHO-K1 AGTR1 β-arrestin cell line (CHO-K1); assay: DiscoveRx β-arrestin2 recruitment assay (enzyme complementation, Pathunter CHO-K1 AGTR1 β-arrestin cell line); type: cell-based; details: DiscoveRx β-arrestin2 recruitment
Sequence (P30556 whole entry): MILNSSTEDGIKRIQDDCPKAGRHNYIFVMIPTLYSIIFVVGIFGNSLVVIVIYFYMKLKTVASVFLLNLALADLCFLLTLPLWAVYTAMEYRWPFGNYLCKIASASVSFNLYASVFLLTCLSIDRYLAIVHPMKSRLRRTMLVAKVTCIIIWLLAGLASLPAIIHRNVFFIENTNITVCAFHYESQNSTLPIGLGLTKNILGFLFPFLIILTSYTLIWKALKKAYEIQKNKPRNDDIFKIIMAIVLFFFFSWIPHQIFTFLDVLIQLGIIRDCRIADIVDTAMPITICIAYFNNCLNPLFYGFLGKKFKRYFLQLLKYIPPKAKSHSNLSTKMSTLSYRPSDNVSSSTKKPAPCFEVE
Catalogue of log10(EC50) values
Field: value | Transform: log10 | Quantity: EC50 | Unit: nM

Worked cases, log10(EC50) given:
compound: CC1=NC2(CCCC2)C(=O)N1Cc1ccc(-c2cc(-c3cc(C)ccn3)ccc2-c2nn[nH]n2)cc1 [Example 111]
property: log10(EC50)
reported.measurement: 0.81
--
compound: CCc1nc2c(C)cc(C)nc2n1Cc1ccc(-c2cc(N3CCCC(C)(C)C3)ccc2-c2nn[nH]n2)cc1 [Example 98]
property: log10(EC50)
reported.measurement: 1.27
--
compound: CCc1nc2c(C)cc(C)nc2n1Cc1ccc(-c2cc(C(=O)c3ccccc3)ccc2-c2nnn[nH]2)cc1 [Example 210]
property: log10(EC50)
reported.measurement: 0.93
--
compound: CCCCOC(=O)NS(=O)(=O)c1sc(-c2ccccc2C(F)(F)F)cc1-c1ccc(Cn2c(CC)nc3c(C)cc(C)nc32)cc1 [Example 45]
property: log10(EC50)
reported.measurement: 1.39
--
compound: CCC1=NC2(CCOC2)C(=O)N1Cc1ccc(-c2cc(-c3ccccc3O)ccc2-c2nnn[nH]2)cc1 (single isomer, unassigned) [Example 167]
property: log10(EC50)
reported.measurement: 1.56

*Q* Recorded log10(EC50) for CCc1nc2c(C)cc(C)nc2n1Cc1ccc(-c2cc(-c3cn(CC4CC4)nn3)ccc2-c2nnn[nH]2)cc1 [Example 237] , please?
*A* 1.74
